# targetSystem: human TRPV4 (Homo sapiens, UniProt Q9HBA0)
# Construct: expressed in transfected cells; host or cells: BHK/AC9 cells transduced with BacMam virus
# Sequence (Q9HBA0 whole entry): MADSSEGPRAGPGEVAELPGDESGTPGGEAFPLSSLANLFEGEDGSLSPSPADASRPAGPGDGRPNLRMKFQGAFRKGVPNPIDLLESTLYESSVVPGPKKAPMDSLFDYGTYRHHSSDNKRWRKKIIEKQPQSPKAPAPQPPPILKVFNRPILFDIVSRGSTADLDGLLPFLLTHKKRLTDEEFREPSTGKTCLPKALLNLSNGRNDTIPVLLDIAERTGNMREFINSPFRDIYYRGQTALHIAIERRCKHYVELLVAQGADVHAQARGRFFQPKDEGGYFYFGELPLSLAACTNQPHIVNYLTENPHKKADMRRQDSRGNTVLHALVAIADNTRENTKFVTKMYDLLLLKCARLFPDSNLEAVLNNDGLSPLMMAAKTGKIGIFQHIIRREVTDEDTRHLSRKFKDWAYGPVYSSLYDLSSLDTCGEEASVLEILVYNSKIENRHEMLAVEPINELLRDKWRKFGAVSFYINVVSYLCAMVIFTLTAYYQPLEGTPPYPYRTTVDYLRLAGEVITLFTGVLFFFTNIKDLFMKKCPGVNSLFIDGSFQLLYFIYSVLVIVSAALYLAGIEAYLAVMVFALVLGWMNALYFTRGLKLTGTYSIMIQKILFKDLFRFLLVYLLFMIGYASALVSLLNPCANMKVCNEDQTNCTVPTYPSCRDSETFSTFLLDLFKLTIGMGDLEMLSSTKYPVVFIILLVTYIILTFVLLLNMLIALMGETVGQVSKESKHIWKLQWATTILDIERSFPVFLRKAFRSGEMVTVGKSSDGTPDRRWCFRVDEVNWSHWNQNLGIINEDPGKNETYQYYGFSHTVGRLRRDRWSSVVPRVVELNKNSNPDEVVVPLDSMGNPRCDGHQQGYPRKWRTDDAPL
# methodNotes: FLIPR assay for hTRPV4 expressed in BHK cells: inhibition of Agonist Compound-induced calcium signal
# Format: cell-based
# cond: hTRPV4 in BHK/AC9 cells, FLIPR calcium signal, agonist at EC80; reported as range class; read-out: IC50
pIC50: −log10 of the molar value.
This section presents molecules with their documented pIC50 values.

Look over these answered cases.
query: What does the record list as pIC50 for CC[C@@H](O)[C@]1(O)CN(S(=O)(=O)c2ccc(Cl)cn2)C[C@@H]1Oc1ccc(C#N)c(F)c1 [Example 196] ?
result: 8.00 to 10.00

query: What does the record list as pIC50 for N#Cc1cc(C(F)(F)F)ccc1S(=O)(=O)N1C[C@H](Oc2ccc(OC(F)(F)F)c(F)c2)[C@](O)(CO)C1 [Example 40] ?
result: 8.00 to 10.00

query: What does the record list as pIC50 for N#Cc1ncccc1S(=O)(=O)N1C[C@H](Oc2ccc(Cl)cc2)[C@](O)(CO)C1 [Example 110] ?
result: 7.00 to 8.00

---
query: What does the record list as pIC50 for Cc1ccc(S(=O)(=O)N2C[C@H](Oc3ccc(C#N)c(F)c3)[C@](O)(CO)C2)cc1F [Example 118] ?
result: 7.00 to 8.00

query: What does the record list as pIC50 for C[C@H](O)[C@]1(O)CN(S(=O)(=O)c2ccc(C#N)cc2Cl)C[C@@H]1Oc1ccc(C#N)c(F)c1 [Example 205] ?
result: 8.00 to 10.00

query: What does the record list as pIC50 for N#Cc1cc(F)ccc1S(=O)(=O)N1C[C@H](Oc2ccc(C(F)(F)F)cc2)[C@](O)(CO)C1 [Example 153] ?
result: 8.00 to 10.00

query: What does the record list as pIC50 for N#Cc1ccc(O[C@H]2CN(S(=O)(=O)c3ccc(C(F)(F)F)cc3C#N)C[C@@]2(O)CO)c(F)c1 [Example 9] ?
result: 8.00 to 10.00

query: What does the record list as pIC50 for N#Cc1cc(Cl)ccc1S(=O)(=O)N1C[C@H](Oc2ccc(C(F)(F)F)cc2)[C@](O)(CO)C1 [Example 156] ?
result: 8.00 to 10.00

query: What does the record list as pIC50 for CNC[C@]1(O)CN(S(=O)(=O)c2ccc(C(F)(F)F)cc2C#N)C[C@@H]1Oc1ccc(C#N)c(F)c1 [Example 237] ?
result: 8.00 to 10.00

query: What does the record list as pIC50 for N#Cc1ncc(O[C@H]2CN(S(=O)(=O)c3ccc(Cl)cc3Cl)C[C@@]2(O)CO)cc1F [Example 36] ?
result: 8.00 to 10.00

query: What does the record list as pIC50 for C[C@H](O)[C@]1(O)CN(S(=O)(=O)c2cccnc2C#N)C[C@@H]1Oc1ccc(C#N)c(F)c1 [Example 203] ?
result: 7.00 to 8.00

query: What does the record list as pIC50 for N#Cc1cc(C(F)(F)F)ccc1S(=O)(=O)N1C[C@H](Oc2cc(F)c(F)cc2F)[C@](O)(CO)C1 [Example 27] ?
result: 8.00 to 10.00

query: What does the record list as pIC50 for N#Cc1cc(F)ccc1S(=O)(=O)N1C[C@H](Oc2ccc(Cl)cc2)[C@@](O)(CO)C1 [Example 147] ?
result: 7.00 to 8.00

query: What does the record list as pIC50 for N#Cc1ccc(O[C@H]2CN(S(=O)(=O)c3ccc(C(F)(F)F)s3)C[C@@]2(O)CO)cc1F [Example 112] ?
result: 7.00 to 8.00

query: What does the record list as pIC50 for N#Cc1cc(C(F)(F)F)ccc1S(=O)(=O)N1C[C@H](Oc2ccc(C#N)c(F)c2F)[C@](O)(CO)C1 [Example 15] ?
result: 8.00 to 10.00
